# Assay type: in vivo, healthy volunteers
# run_parameters: both, human, plasma, oral
Field: Tmax. Provide a value for each of the compounds that follow.
Give bare numbers, in h.

Example entries and their recorded answers appear below.
Noted for O=C1CN=C(c2ccccc2)c2cc(Cl)ccc2N1 [Nordiazepam] : its Tmax reads 48

Noted for COc1ccc2c3c1O[C@H]1C(=O)CC[C@H]4[C@@H](C2)N(C)CC[C@]314 [Hydrocodone] : its Tmax reads 2

Continuing:
Noted for CCCC(C)(COC(N)=O)COC(=O)NC(C)C (stereo not shown) [Carisoprodol] : its Tmax reads 2

###

# Format: in vivo, healthy volunteers
# run_parameters: both, human, plasma, oral, 2 mg
measurement_kind: Tmax (h)
Numbers only, in h.

Noted for `O=C1CN=C(c2ccccc2)c2cc(Cl)ccc2N1` : its Tmax reads 96
